test: Plasma concentration in mouse at 30 mg/kg, ip after 30 mins; format: ADME, organism-based; set-up: dose 30 mg/kg, route intraperitoneal
READOUT LABEL: concentration at 0.5 h (nM)
Express the result in nM but write the number alone.

Ask | Endpoint output: concentration at 0.5 h of `COc1cc(F)ccc1-c1cncc(CNC2CCCC2)c1` . Value?
Reply | 2320

---

experiment: Plasma concentration in mouse at 60 mg/kg, ip after 30 mins; format: ADME, organism-based; parameters: dose 60 mg/kg, route intraperitoneal
READOUT LABEL: concentration at 0.5 h (µM)
Express the result in µM but write the number alone.

Ask | Endpoint output: concentration at 0.5 h of `COc1cc(F)ccc1-c1cncc(CNC2CCCC2)c1` . Value?
Reply | 3.37
